Test: Cytotoxicity against human PC3 cells assessed as reduction in cell growth after 72 hrs by MTT assay
Assay type: functional, cell-based
Details: PC-3, 72 h
Could you please report measured pIC50 for the items listed next?
The value called pIC50 is obtained by taking minus log10 of the concentration in mol/L.

Exercise: Could you share which pIC50 value was measured for O=C(Nc1ccc(Oc2ccnc3[nH]ccc23)cc1)c1nnn(-c2ccc(F)c(F)c2)c1C(F)(F)F ?
Solution: 5.14

Exercise: Could you share which pIC50 value was measured for Cc1c(C(=O)Nc2ccc(Oc3ccnc4[nH]ccc34)cc2)nnn1-c1ccc(Cl)c(C(F)(F)F)c1 ?
Solution: 4.96

Exercise: Could you share which pIC50 value was measured for Cc1c(C(=O)Nc2ccc(Oc3ccnc4[nH]ccc34)cc2)nnn1-c1ccccc1F ?
Solution: 5.46

Exercise: Could you share which pIC50 value was measured for COc1ccc(-n2nnc(C(=O)Nc3ccc(Oc4ccnc5[nH]ccc45)cc3)c2C(F)(F)F)cc1 ?
Solution: 5.31

Exercise: Could you share which pIC50 value was measured for O=C(Nc1ccc(Oc2ccnc3[nH]ccc23)c(F)c1)c1nnn(-c2ccccc2F)c1C(F)(F)F ?
Solution: 5.67

Exercise: Could you share which pIC50 value was measured for O=C(Nc1ccc(Oc2ccnc3[nH]ccc23)cc1)c1nnn(-c2ccccc2)c1C(F)(F)F ?
Solution: 5.45

Exercise: Could you share which pIC50 value was measured for Cc1c(C(=O)Nc2ccc(Oc3ccnc4[nH]ccc34)c(F)c2)nnn1-c1ccc(F)c(F)c1 ?
Solution: 5.18

Exercise: Could you share which pIC50 value was measured for Cc1c(C(=O)Nc2ccc(Oc3ccnc4[nH]ccc34)cc2)nnn1-c1ccc(F)cc1 ?
Solution: 5.46

Exercise: Could you share which pIC50 value was measured for Cc1c(C(=O)Nc2ccc(Oc3ccnc4[nH]ccc34)c(F)c2)nnn1-c1ccccc1 ?
Solution: 5.63

* * *

Target: Hepatocyte growth factor receptor (Homo sapiens, UniProt P08581)
Sequence (P08581 whole entry): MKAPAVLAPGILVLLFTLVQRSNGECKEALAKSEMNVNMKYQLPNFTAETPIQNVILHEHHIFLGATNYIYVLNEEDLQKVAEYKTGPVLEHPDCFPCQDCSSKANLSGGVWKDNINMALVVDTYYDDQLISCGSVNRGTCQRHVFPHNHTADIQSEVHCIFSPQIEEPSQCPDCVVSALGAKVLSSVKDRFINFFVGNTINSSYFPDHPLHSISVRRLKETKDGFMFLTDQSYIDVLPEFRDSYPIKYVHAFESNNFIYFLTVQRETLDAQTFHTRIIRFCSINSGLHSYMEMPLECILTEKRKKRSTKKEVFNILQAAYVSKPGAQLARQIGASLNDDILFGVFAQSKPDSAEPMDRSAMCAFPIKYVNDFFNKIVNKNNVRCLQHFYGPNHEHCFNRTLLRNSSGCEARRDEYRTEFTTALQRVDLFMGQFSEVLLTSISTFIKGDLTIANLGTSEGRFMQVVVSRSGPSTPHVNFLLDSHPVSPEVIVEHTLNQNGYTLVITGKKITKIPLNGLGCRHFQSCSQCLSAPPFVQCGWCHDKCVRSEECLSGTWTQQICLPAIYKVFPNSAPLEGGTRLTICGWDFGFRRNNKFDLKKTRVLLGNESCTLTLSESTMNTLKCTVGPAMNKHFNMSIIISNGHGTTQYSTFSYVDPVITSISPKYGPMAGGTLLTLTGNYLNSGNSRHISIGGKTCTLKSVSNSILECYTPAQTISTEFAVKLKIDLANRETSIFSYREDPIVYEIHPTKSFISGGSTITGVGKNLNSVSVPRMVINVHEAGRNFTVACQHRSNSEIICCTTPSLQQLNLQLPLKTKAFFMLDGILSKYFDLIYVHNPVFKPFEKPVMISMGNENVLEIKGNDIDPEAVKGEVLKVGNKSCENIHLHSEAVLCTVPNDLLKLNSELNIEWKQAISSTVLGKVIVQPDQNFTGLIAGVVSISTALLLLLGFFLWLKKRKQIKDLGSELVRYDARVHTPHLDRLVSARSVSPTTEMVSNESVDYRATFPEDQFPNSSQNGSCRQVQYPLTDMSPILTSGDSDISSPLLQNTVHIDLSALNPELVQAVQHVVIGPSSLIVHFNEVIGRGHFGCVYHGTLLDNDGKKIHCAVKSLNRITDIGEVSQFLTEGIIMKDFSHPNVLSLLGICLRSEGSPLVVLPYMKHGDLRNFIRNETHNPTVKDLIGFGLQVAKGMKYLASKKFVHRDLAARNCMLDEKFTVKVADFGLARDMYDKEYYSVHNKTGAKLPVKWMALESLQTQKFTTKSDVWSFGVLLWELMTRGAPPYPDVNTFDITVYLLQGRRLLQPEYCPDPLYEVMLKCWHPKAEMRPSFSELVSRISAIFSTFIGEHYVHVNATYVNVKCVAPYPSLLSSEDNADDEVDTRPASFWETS
measure: pIC50
The value called pIC50 is obtained by taking minus log10 of the concentration in mol/L.

Exercise: Quick check: pIC50 on Hepatocyte growth factor receptor (Homo sapiens, UniProt P08581), item O=C(Nc1ccc(Oc2ccnc3[nH]ccc23)c(F)c1)c1nnn(-c2ccc(F)cc2)c1C(F)(F)F ?
Solution: 8.77

* * *

System: MCF7
Test: Cytotoxicity against human MCF7 cells assessed as reduction in cell growth after 72 hrs by MTT assay
Type: functional, cell-based
Conditions: MCF7, 72 h
Could you please report measured pIC50 for the items listed next?
The value called pIC50 is obtained by taking minus log10 of the concentration in mol/L.

Exercise: Could you share which pIC50 value was measured for Cc1c(C(=O)Nc2ccc(Oc3ccnc4[nH]ccc34)c(F)c2)nnn1-c1ccc(F)cc1 ?
Solution: 6.77

Exercise: Could you share which pIC50 value was measured for O=C(Nc1ccc(Oc2ccnc3[nH]ccc23)c(F)c1)c1nnn(-c2ccccc2)c1C(F)(F)F ?
Solution: 5.94

Exercise: Could you share which pIC50 value was measured for Cc1c(C(=O)Nc2ccc(Oc3ccnc4[nH]ccc34)cc2)nnn1-c1ccccc1F ?
Solution: 6.55

Exercise: Could you share which pIC50 value was measured for Cc1c(C(=O)Nc2ccc(Oc3ccnc4[nH]ccc34)cc2)nnn1-c1ccccc1 ?
Solution: 6.49

Exercise: Could you share which pIC50 value was measured for O=C(Nc1ccc(Oc2ccnc3[nH]ccc23)c(F)c1)c1nnn(-c2ccc(F)cc2)c1C(F)(F)F ?
Solution: 6.96
